system: SF-539; assay: NCI tumour cell line growth inhibition, 48 h
The source made the active and inactive calls. Rule as the data show it: active = GI50 up to about 1.1 µM and inactive = higher.
observation type: GI50

COC(=O)C(C)(C)/N=C/N(C)C : > 100 µM (inactive)
C=C(C)[C@H](O)C(O)CC(C)[C@@H]1CCC23CC12CCC1[C@@]2(C)CCC(OC(C)=O)C(C)(C)C2CC(OC2OC(COC(C)=O)C(O)C(O)C2O)[C@]13C (some centres not stated) : 6.67 µM (inactive)
CC1=C(C(=O)Nc2ccccc2C)C(c2ccc(C3C(C(=O)Nc4ccccc4C)=CNC=C3C(=O)Nc3ccccc3C)cc2)C(C(=O)Nc2ccccc2C)=C(C)N1 : 14.4 µM (inactive)

Query string: Which GI50 is reported for this compound? `COC(=O)c1ccc(NC(=O)c2cc3c(cc2Br)OCO3)o1`
Result string: > 100 µM (inactive)

###

Listed here are molecules together with their documented GI50.
tested on: SF-539; assay: NCI tumour cell line growth inhibition, 48 h
Calls of active or inactive are those of the source. Cut-off read from the data, not from the text of the source: active = GI50 up to about 1.1 µM and inactive = higher.

N=c1c2ccccc2nc2oc3ccccc3n12 : 37.2 µM (inactive)

Query string: Which GI50 is reported for this molecule? `O=C1c2cccc3cc([N+](=O)[O-])cc(c23)C(=O)N1NC1=NCCN1`
Result string: > 100 µM (inactive)

Query string: Which GI50 is reported for this molecule? CC1C(=O)C(C)C(c2ccco2)N(N=O)C1c1ccco1 (stereo not drawn)
Result string: > 100 µM (inactive)

###

test system: A549; experiment: NCI tumour cell line growth inhibition, 48 h
The source made the active and inactive calls. Cut-off read from the data, not from the text of the source: active = GI50 up to about 1.1 µM and inactive = higher.
observation type: GI50

Query string: Identify the measured GI50 of ON=C1CCC(c2ccccc2)CC1 (stereo unspecified) for A549.
Result string: > 100 µM (inactive)

Query string: Identify the measured GI50 of `COc1ccc(C(N)=O)cc1/N=N/N(C)C` for A549.
Result string: > 100 µM (inactive)

Query string: Identify the measured GI50 of `C(=C\c1cccs1)/c1cccc(/C=C/c2cccs2)n1` for A549.
Result string: 60.7 µM (inactive)

Query string: Identify the measured GI50 of C=C1C(=O)OC2C[C@@]3(C)CCCC(=C)C3CC12 (stereo partly specified) for A549.
Result string: 12.2 µM (inactive)

Query string: Identify the measured GI50 of `CN(C)C(=S)Oc1ccc2ccc(=O)oc2c1` for A549.
Result string: > 100 µM (inactive)

Query string: Identify the measured GI50 of `O=C(/C=C/c1ccccc1O)c1cccc2ccccc12` for A549.
Result string: > 80.2 µM (inactive)

Query string: Identify the measured GI50 of `O=C1Cc2ccccc2CCc2ccsc21` for A549.
Result string: > 100 µM (inactive)

Query string: Identify the measured GI50 of `N#Cc1c(N2CCCC2)ncn(Cc2ccccc2)c1=S` for A549.
Result string: > 100 µM (inactive)

Query string: Identify the measured GI50 of `O=C(O)c1cc(-c2ccc3c(O)ccc(O)c3c2)ccc1O` for A549.
Result string: 33.5 µM (inactive)

Query string: Identify the measured GI50 of `CCCCSC1=N/C(=C\c2ccc(N(C)C)cc2)C(Cl)=N1` for A549.
Result string: > 100 µM (inactive)

Query string: Identify the measured GI50 of `c1ccncc1` for A549.
Result string: > 100 µM (inactive)

Query string: Identify the measured GI50 of Cc1ccc(NC(=O)C2C3C=CC(O3)C2C(=O)O)cc1 (stereo unspecified) for A549.
Result string: > 100 µM (inactive)

Query string: Identify the measured GI50 of `CC1=N/C(=C\c2ccc(N)cc2)C(=O)N1Nc1nnc(NN2C(=O)/C(=C/c3ccc(N)cc3)N=C2C)c2ccccc12` for A549.
Result string: > 100 µM (inactive)

Query string: Identify the measured GI50 of `CCC(=O)N1C(=S)SC[C@H]1C(=O)OC` for A549.
Result string: > 100 µM (inactive)

Query string: Identify the measured GI50 of `N#Cc1c(C#N)c(SSc2c(C#N)c(C#N)c(N)n2-c2cccc3ccccc23)n(-c2cccc3ccccc23)c1N` for A549.
Result string: 19.9 µM (inactive)

Query string: Identify the measured GI50 of `Cc1cnoc1/N=C1\C=C(Nc2oncc2C)C(=O)c2ccccc21` for A549.
Result string: > 100 µM (inactive)

###

system: OVCAR-3; test: NCI tumour cell line growth inhibition, 48 h
The source made the active and inactive calls. No stated cut-off is given here; in the data, active = GI50 up to about 1.1 µM and inactive = higher.
observation type: GI50

// below: answered molecules
COc1ccc(-c2nc3cc(C(F)(F)F)ccc3n2CC2CCCN3CCCCC23)cc1 (stereo not given) : 16.1 µM (inactive)
CC(=O)c1c(-c2ccco2)c(C#N)c(=S)n(C2OC(CO)C(O)C(O)C2O)c1-c1ccccc1 (stereo not given) : > 100 µM (inactive)

Query string: Which GI50 is reported for this molecule? `Cc1ccc(S(=O)(=O)NC(=O)Nc2cccc(S(N)(=O)=O)c2)cc1`
Result string: > 100 µM (inactive)

Query string: Which GI50 is reported for this molecule? `O=C1CCC(=O)C1=NNc1ccccc1`
Result string: > 100 µM (inactive)

Query string: Which GI50 is reported for this molecule? CC(CN(C)C)/C(=N\Nc1ccccc1)c1ccccc1 (stereo not given)
Result string: 1.16 µM (inactive)

Query string: Which GI50 is reported for this molecule? `COc1ccc(C(N)=O)cc1/N=N/N(C)C`
Result string: > 100 µM (inactive)

Query string: Which GI50 is reported for this molecule? `O=[N+]([O-])c1c(/C=N/c2ccccc2)oc(-c2ccc3c(c2)OCO3)c1-c1ccc2c(c1)OCO2`
Result string: > 100 µM (inactive)

Query string: Which GI50 is reported for this molecule? `CCN(CC)CCOc1ccc(C(=C2CCCCC2)c2ccc(OCCN(CC)CC)cc2)cc1`
Result string: 1.72 µM (inactive)

Query string: Which GI50 is reported for this molecule? COC1OC(COC(=O)NCCCCC(=O)C(F)(F)F)C(O)C(O)C1O (stereo not given)
Result string: > 100 µM (inactive)

Query string: Which GI50 is reported for this molecule? `O=C1O/C(=C\c2ccc(O)c(Br)c2)C(c2ccc(O)c(Cl)c2)=C1Br`
Result string: 17.8 µM (inactive)

###

test system: IGROV-1; experiment: NCI tumour cell line growth inhibition, 48 h
Activity calls are given as the source filed them. Rule as the data show it: active = GI50 up to about 1.1 µM and inactive = higher. Peptide text beside a SMILES is read from it. * marks the point of attachment. OSu = O=C1CCC(=O)N1O*
observation type: GI50

C/C(=N\NC(=O)Nc1ccccc1Cl)c1ccc(O)cc1 : > 100 µM (inactive)
CCOC(=O)CC(N1CC1)N1CC1 : > 10 µM (inactive)
NCCCCC(NC(=O)C(N)Cc1ccc(O)cc1)C(=O)NC(Cc1ccc(O)cc1)C(=O)NC(CCCCN)C(=O)ON1C(=O)CCC1=O (centres undefined) (H-YKYK-OSu; configuration not given here) : > 100 µM (inactive)
Cc1cc(C)nc(NS(=O)(=O)c2ccc(NC(=O)c3cccc4c(N)c5ccccc5nc34)cc2)n1 : > 100 µM (inactive)
CSC1NNC2(C(=O)N1)c1ccccc1-c1ccccc12 (centres undefined) : > 10 µM (inactive)
CCc1ccc(CCC(=O)O)nc1 : > 100 µM (inactive)
CCN1c2ccccc2-n2c(C)nnc2-c2c(-c3ccccc3)n[nH]c21 : 21.4 µM (inactive)
CCCCCCc1cc2cc(C(=O)Nc3cccc(F)c3)c(=N)oc2cc1O : 1.42 µM (inactive)

Query string: Which GI50 is reported for this compound? `CCN(CC)CCOc1ccc(C(=C2CCCCC2)c2ccc(OCCN(CC)CC)cc2)cc1`
Result string: 1.71 µM (inactive)

###

Listed here are compounds together with their documented GI50.
system: NCI-H226; experiment: NCI tumour cell line growth inhibition, 48 h
The source made the active and inactive calls. Rule as the data show it: active = GI50 up to about 1.1 µM and inactive = higher.

O=C(Nc1cccc(NC(=O)C(=O)C2CCC3=C(Sc4ccccc4N3)C2=O)n1)C(=O)C1CCC2=C(Sc3ccccc3N2)C1=O (stereo unspecified) : 26.5 µM (inactive)
COc1cc(C2c3cc4c(cc3[C@@H](Nc3ccc(N)cc3)C3COC(=O)[C@H]23)OCO4)cc(OC)c1O (stereo partly specified) : 1.19 µM (inactive)
CCC1C(C#N)=C(O)NC(O)=C1C#N : > 100 µM (inactive)
CCOC(=O)CC(N1CC1)N1CC1 : > 10 µM (inactive)

Query string: Which GI50 is reported for this compound? O=c1c2cc(O)c(O)cc2oc2cc(O)c(C3OC(CO)C(O)C(O)C3O)c(O)c12 (stereo unspecified)
Result string: > 100 µM (inactive)

Query string: Which GI50 is reported for this compound? `Cn1c(=O)c2c(nc(NCCNc3nc4c(c(=O)n(C)c(=O)n4C)n3C)n2C)n(C)c1=O`
Result string: > 100 µM (inactive)

Query string: Which GI50 is reported for this compound? c1ccc([B-]23Oc4ccccc4[NH+]2c2ccccc2O3)cc1 (stereo unspecified)
Result string: > 100 µM (inactive)

Query string: Which GI50 is reported for this compound? CCNC(CCCC(NCC)P(=O)(O)O)P(=O)(O)O (stereo unspecified)
Result string: > 100 µM (inactive)

Query string: Which GI50 is reported for this compound? `CC(C)(C)c1cc(/C=C(\C#N)C2=NCCO2)cc(C(C)(C)C)c1O`
Result string: 5.4 µM (inactive)

Query string: Which GI50 is reported for this compound? `COc1ccc2c(c1)-c1c(c3ccccc3n1CCN1CCOCC1)CC2`
Result string: 11.7 µM (inactive)
